details: in DMF, 308.15 K

>  <GIVEN SMILES>
COc1c(C(C)(C)C)cc([N+](=O)[O-])c(C)c1[N+](=O)[O-]

>  <solubility (mole fraction)>
0.263

$$$$

---

details: in ethanol, 293.15 K

>  <GIVEN SMILES>
COc1c(C(C)(C)C)cc([N+](=O)[O-])c(C)c1[N+](=O)[O-]

>  <solubility (mole fraction)>
0.00791

$$$$

---

details: in THF, 288.15 K

>  <GIVEN SMILES>
COc1c(C(C)(C)C)cc([N+](=O)[O-])c(C)c1[N+](=O)[O-]

>  <solubility (mole fraction)>
0.203

$$$$

Each recorded value in this set is attributed to BigSolDB 2.1.
